// compounds with reported IC50 on Histone deacetylase 1 (Homo sapiens, UniProt Q13547), multi-publication
Label key: MET means IC50 under 2000 nM; NOT MET means IC50 of 2000 nM or more.

compound=CCN(CC)CCn1c(CCSC)nc2cc(/C=C/C(=O)NO)ccc21 study_target="Histone deacetylase 1 (Homo sapiens, UniProt Q13547)" cat=MET
compound=CCC(=O)CCCCC[C@H](NC(=O)C1CN(C)C1)c1ncc(-c2ccccc2)o1 study_target="Histone deacetylase 1 (Homo sapiens, UniProt Q13547)" cat=MET
compound=CCCC(=O)NCc1nc2cc(/C=C/C(=O)NO)ccc2n1CCN(CC)CC study_target="Histone deacetylase 1 (Homo sapiens, UniProt Q13547)" cat=MET
compound=CC1(C)C(=O)N(Cc2ccc(-c3nnc(C(F)F)o3)cn2)C(=O)c2cc(-c3ccccc3F)ccc21 study_target="Histone deacetylase 1 (Homo sapiens, UniProt Q13547)" cat="NOT MET"
compound=CN1CCN(c2ccc(C(=O)Nc3cc(-c4ccccc4)ccc3N)cn2)CC1 study_target="Histone deacetylase 1 (Homo sapiens, UniProt Q13547)" cat=MET
compound=Nc1ccc(-c2ccco2)cc1NC(=O)c1ncc(N2CCNCC2)s1 study_target="Histone deacetylase 1 (Homo sapiens, UniProt Q13547)" cat=MET
compound=O=C(NO)c1ccc(Cn2ccc3cc(C4CCN(CC5(C(F)(F)F)CCC5)CC4)cnc32)cc1 study_target="Histone deacetylase 1 (Homo sapiens, UniProt Q13547)" cat="NOT MET"
compound=COc1ccc(C(=O)N[C@@H](Cc2cscn2)c2nc(Cc3ccc(C(=O)NO)cc3)no2)cc1OC study_target="Histone deacetylase 1 (Homo sapiens, UniProt Q13547)" cat=MET
compound="Cc1c(Cc2ccc(C(=O)NO)cc2)c2ccccc2n1CCN1CCCC(CO)C1 (centres unmarked)" study_target="Histone deacetylase 1 (Homo sapiens, UniProt Q13547)" cat="NOT MET"
compound=CC(C)(F)C(=O)N1CCN(c2cnc3c(ccn3Cc3ccc(C(=O)NO)cc3)c2)CC1 study_target="Histone deacetylase 1 (Homo sapiens, UniProt Q13547)" cat=MET
compound=CN(C)CCCn1c(=O)n(Cc2ccc(-c3nnc(C(F)F)o3)cn2)c(=O)c2ccccc21 study_target="Histone deacetylase 1 (Homo sapiens, UniProt Q13547)" cat="NOT MET"
compound=CC(C)(C)OC(=O)N1CC=C(c2ccnc3c2ccn3Cc2ccc(C(=O)NO)cc2)CC1 study_target="Histone deacetylase 1 (Homo sapiens, UniProt Q13547)" cat=MET
compound=Cn1c(Sc2c(F)cc(C(=O)NO)cc2F)nnc1C(c1ccccc1)c1ccccc1 study_target="Histone deacetylase 1 (Homo sapiens, UniProt Q13547)" cat=MET
compound=CCC(=O)CCCCC[C@H](NC(=O)Cc1cccnc1)c1ncc(-c2cc3ccccc3nc2OC)o1 study_target="Histone deacetylase 1 (Homo sapiens, UniProt Q13547)" cat=MET
